- study_system: T1, TNF-beta (human, UniProt P01374 35-205)
- T1 construct: also called TNFβ; Tumour Necrosis Factor-beta
- T1 sequence (looked up): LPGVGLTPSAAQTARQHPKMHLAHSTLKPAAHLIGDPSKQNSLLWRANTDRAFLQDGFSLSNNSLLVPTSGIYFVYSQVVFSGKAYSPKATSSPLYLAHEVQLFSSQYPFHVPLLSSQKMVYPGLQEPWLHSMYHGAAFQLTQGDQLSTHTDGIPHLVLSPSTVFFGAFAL
- experiment_summary: phage ELISA

binder	binding result
I075F12 (scFv) scFv: QVQLVQSGAEVKKPGSSVKVSCKASGGTVSSRTISWVRQAPGQGLEWMGGSLPPSGAPIYAQKFQGRVAITADALTNTAFMELRSLKSDDTAVYYCARDQGRYLDLWGQGTMVTVSSGGGGSGGGGSGGGGSAQAVLTQPSSASGTPGQRATISCSGSSSDIGINAVNWYKQLPRTAPKLLIYRNNQRPSGVPDRFSGSKSGTSASLAIIGLQSEDEADYYCATWDDSLTAYVFGTGTKVTVLG	no binding
I017D10 (scFv) scFv: RVQLVQSGAEVKKPGASVKVSCKASGYTFTSDHISWVRQAPGQGLEWMGWISPHHGKTNYAQKLQGRVTMTTDTSTSTAYMELRSLRSDDTAVYYCARVQMDSEYYDLLTGINVGPYYFDYWGKGTLVTVSSGGGGSGGGGSGGGGSSELTQDPAVSVALGQTVRITCQGDSLRSYYASWYQQKPGQAPVLVIYGKNNRPSGIPDRFSGSSSGNTASLTITGAQAEDEADYYCNSRDSSGNHVVFGGGTKLTVLG	no binding
I016E05 (scFv) scFv: QVQLQQSGAEVKKPGASVKVSCKASGYTFTKYTMHWVRQAPGQGPEWMGWINGGSGDTKYSRKFQGRVTITKDTSASAAYMELSSLGSEDTALYYCARATYDPLTGYSFDGFDIWGKGTMVTVSSGGGGSGGGGSGGGGSQSALTQPASVSGSPGQSITISCTGTSSDVGGYNYVSWYQQHPGKAPKLMIYEGSKRPSGVSNRFSGSKSGNTASLTISGLQAEDEADYYCSSYTTRSTRVFGGGTKLTVLG	no binding
I031F02 (scFv) scFv: QVQLVQSGAEVRKPGSSVKVSCKASGGSFSSHVFSWVRQAPGQGLEWVGGITPKFATPNYAQKFQHRVTITADELTRTVFMDLSGLRSEDTAVYYCARGYDSSAFRAFDIWGQGTMVTVSSGGGGSGGGGSGGGGSAQSVLTQPPSVSGAPGQRVTISCTGSSSNIGAGYDVQWYQQLPGTAPKLLIHGNNNRPSGVPDRFSGSKSGTSASLAITGLQDEDEADYYCQSYDSSLSFSGYVFGTGTKVTVLG	no binding
I021B05 (scFv) scFv: QVQQSGADVKKPGGSLRLSCAASGFTFSSYSMNWVRQAPGKGLEWVSSISSSSSYIYYADSVKGRFTISRDNAKNSLYLQMNSLRAEDTAVYYCAREGGNYDILTGYYIGNGAFDIWGRGTMVTVSSGGGGSGGGGSGGGGSQSVLTQPASVSGSPGQSITISCTGTSSDVGGYNYVSWYQQHPGKAPKLMIYEGSKRPSGVSNRFSGSKSGNTASLTISGLQAEDEADYYCSSYTTRSTRVFGGGTKLTVLG	no binding
